- Study System: OsWRKY34 (Oryza sativa, UniProt Q0JBA9 1-250)
- Sequence (Q0JBA9 entry or part of it): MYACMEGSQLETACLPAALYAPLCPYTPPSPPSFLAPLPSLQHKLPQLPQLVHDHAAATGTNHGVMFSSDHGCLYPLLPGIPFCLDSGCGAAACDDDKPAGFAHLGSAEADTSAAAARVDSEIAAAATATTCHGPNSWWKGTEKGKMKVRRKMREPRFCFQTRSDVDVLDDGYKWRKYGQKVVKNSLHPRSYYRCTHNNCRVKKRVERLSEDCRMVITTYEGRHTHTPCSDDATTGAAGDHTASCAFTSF
- Measurement Protocol: protein-binding microarray (RPBM); PBS, 2% BSA, 51.3 ng/ul salmon testes DNA, 50 uM zinc acetate, 200 nM TF, 25 C, 1 h; high values mean tight binding
- Recorded Conditions: protein: recombinant; tags: N-terminal polyhistidine and DsRed monomer fusion (pET32a); label: CyDye5-dUTP incorporated in the synthesized complementary strand; 3' TTTTT single-stranded linker to array surface; dsDNA, one strand shown
The full ranking holds about 68,000 sequences; the median of “fluorescence intensity (a.u.)” is about 9,100, and the highest 2% start at about 16,000. For the sample, the highest values were picked, then their nearest neighbours and some sequences at random.
Readout Kind: binding signal

Record excerpt, results attached:
- TTATGGGTATGTCACCAGGGGTTTAATCTTTCATTTTCAACGGAGTCACCTAGTGCAG: 12300 fluorescence intensity (a.u.)
- CTTCGCTTTCGTCACGTTCTTGATTTGGGCGGGCGCGGAGCGGAGTCACCTAGTGCAG: 8980 fluorescence intensity (a.u.)
- TGCAGTGGCTCCGTCGCTCAGTGAACATCCAGTCCCATTTCGGAGTCACCTAGTGCAG: 9900 fluorescence intensity (a.u.)
- TCCGTTTTTGTGGTTTTCGATGGATTCCGTCGTCGCCGACCGGAGTCACCTAGTGCAG: 9660 fluorescence intensity (a.u.)
- TATATATATATATATATATATATATATATGTGTGTGTGTGCGGAGTCACCTAGTGCAG: 13700 fluorescence intensity (a.u.)

Request: Sample TGATCTGATCTGACAATTTGGGCGGGCTGTGTTTTATGAACGGAGTCACCTAGTGCAG — what was its binding signal?
Result: 12900 fluorescence intensity (a.u.)

Request: Entry TCTCGTGTTCCTCTTCACTACCACTTCTAGAAGCTTCCTCCGGAGTCACCTAGTGCAG please
Result: 8020 fluorescence intensity (a.u.)

Request: Entry TATATATATATATATATATATATATATGTGTGTGTGTGTTCGGAGTCACCTAGTGCAG please
Result: 14600 fluorescence intensity (a.u.)

Request: Entry ACATGGGAATTTTGGTGGGATGGGGATGGGGAATTGACCTCGGAGTCACCTAGTGCAG please
Result: 14100 fluorescence intensity (a.u.)

Request: Entry CGCATATATATCTCTCTTTGCATCTGTACTCATCGAATCTCGGAGTCACCTAGTGCAG please
Result: 8640 fluorescence intensity (a.u.)

Request: Entry ATATACACATTCTCCCATTGCTATATTATCTGTATTCTGACGGAGTCACCTAGTGCAG please
Result: 13400 fluorescence intensity (a.u.)

Request: Entry AGGTCGACGTGTATATGTTCGTCTTTCATATCTCTGCTCTCGGAGTCACCTAGTGCAG please
Result: 9640 fluorescence intensity (a.u.)

Request: Entry ACCGGCCCAGAACAGTTGGGCAGCCCACGAAGTCACCAACCGGAGTCACCTAGTGCAG please
Result: 8540 fluorescence intensity (a.u.)

Request: Entry GGTTTGTTCGTGTCTTTTGTGGTGATTGCATTTGATTGGGCGGAGTCACCTAGTGCAG please
Result: 9920 fluorescence intensity (a.u.)

Request: Entry CCCTTTTTTATACCGTGGCATATCTCTCTGCATTTAATCTCGGAGTCACCTAGTGCAG please
Result: 13700 fluorescence intensity (a.u.)

* * *

- Study System: OsWRKY34 (Oryza sativa, UniProt Q0JBA9 1-250)
- Measurement Protocol: protein-binding microarray (RPBM); PBS, 2% BSA, 51.3 ng/ul salmon testes DNA, 50 uM zinc acetate, 200 nM TF, 25 C, 1 h; high values mean tight binding
- Recorded Conditions: protein: recombinant; tags: N-terminal polyhistidine and DsRed monomer fusion (pET32a); label: CyDye5-dUTP incorporated in the synthesized complementary strand; 3' TTTTT single-stranded linker to array surface; dsDNA, one strand shown
Over roughly 68,000 sequences, “fluorescence intensity (a.u.)” has its median near 9,100; the highest 2% begin near 16,000. What follows is part of a selection rich in the highest values, with near analogues and random picks from the rest.
Catalogue of binding signal readings, one per entry.

Record excerpt, results attached:
• GGTTTGCCGTCGTCGGCGTCGGCCGCTGCCTCGCGCGCGCCGGAGTCACCTAGTGCAG = 9230 fluorescence intensity (a.u.)
• CCCTCTTCTCCTTTGCTTGGTCTCGTTTCGTCGCTGTCGTCGGAGTCACCTAGTGCAG = 8260 fluorescence intensity (a.u.)
• GGTGGTTCTTGCTTCACACAATCTGGCGCGCTTCAGAACACGGAGTCACCTAGTGCAG = 13300 fluorescence intensity (a.u.)
• GAATTTTTTTTTCGTTTTTTTCAATTCGTTATTCTTTTCTCGGAGTCACCTAGTGCAG = 12300 fluorescence intensity (a.u.)
• CCTTCGATTGACCTCCTCATCCTCTTCCCCTGCTTTCTTTCGGAGTCACCTAGTGCAG = 9720 fluorescence intensity (a.u.)

Request: What is its binding signal for OsWRKY34 (Oryza sativa, UniProt Q0JBA9 1-250)? Entry: CCCACGCAGATCTCCGCTTTTTCCCGGCGGCAACCACGCCCGGAGTCACCTAGTGCAG
Result: 10200 fluorescence intensity (a.u.)

Request: Entry CCTCACGCAATTCCACAACTGCTGCTCCCACCCTCATCAGCGGAGTCACCTAGTGCAG please
Result: 9580 fluorescence intensity (a.u.)

Request: Entry CTGCAATCTAGCCATCTGTTATCTATCCATGCATCGATGTCGGAGTCACCTAGTGCAG please
Result: 8120 fluorescence intensity (a.u.)

Request: Entry CTTTTTTCTCTGCGGGTTCTTCAATTATTCAGGGTTTCTTCGGAGTCACCTAGTGCAG please
Result: 16800 fluorescence intensity (a.u.)

* * *

Catalogue of binding signal readings, one per entry.
- Study System: OsWRKY34 (Oryza sativa, UniProt Q0JBA9 1-250)
- Measurement Protocol: protein-binding microarray (RPBM); PBS, 2% BSA, 51.3 ng/ul salmon testes DNA, 50 uM zinc acetate, 200 nM TF, 25 C, 1 h; high values mean tight binding
- Recorded Conditions: protein: recombinant; tags: N-terminal polyhistidine and DsRed monomer fusion (pET32a); label: CyDye5-dUTP incorporated in the synthesized complementary strand; 3' TTTTT single-stranded linker to array surface; dsDNA, one strand shown
The full ranking holds about 68,000 sequences; the median of “fluorescence intensity (a.u.)” is about 9,100, and the highest 2% start at about 16,000. For the sample, the highest values were picked, then their nearest neighbours and some sequences at random.

Record excerpt, results attached:
- GGTGGTTTGAATTTGGTGTGGCGTTTTTCTTGGGCAGGGGCGGAGTCACCTAGTGCAG: 21500 fluorescence intensity (a.u.)
- TTTTCAGCGTGTGCATCACATGGTCCGTATCTTTAATACTCGGAGTCACCTAGTGCAG: 8520 fluorescence intensity (a.u.)

Request: Sample ATTTCAGGCCCACTAGTCCGCTCTTCCTCTTCTTTTTTTTCGGAGTCACCTAGTGCAG — what was its binding signal?
Result: 9840 fluorescence intensity (a.u.)

Request: Entry TAATGTATAACGCCGTTAACTTTTTAACAAACGTTTGACCCGGAGTCACCTAGTGCAG please
Result: 8430 fluorescence intensity (a.u.)

Request: Entry ATTTGGTTTTATATGTTTGTGGAGTGATATATTTCGTATTCGGAGTCACCTAGTGCAG please
Result: 8350 fluorescence intensity (a.u.)

Request: Entry GGTGTGTGCTGGCTATTTGTCAAAGATTATGTGGGTTTTTCGGAGTCACCTAGTGCAG please
Result: 10400 fluorescence intensity (a.u.)

Request: Entry TTTTCAATTTTCTGGTTGAGTAGGGGTTCGGAATTTTCTTCGGAGTCACCTAGTGCAG please
Result: 10600 fluorescence intensity (a.u.)

Request: Entry CTCGTACTAGGGTGTCATGCTGTTGGTTCCGGTGAATCTTCGGAGTCACCTAGTGCAG please
Result: 8270 fluorescence intensity (a.u.)

* * *

- Study System: OsWRKY34 (Oryza sativa, UniProt Q0JBA9 1-250)
- Measurement Protocol: protein-binding microarray (RPBM); PBS, 2% BSA, 51.3 ng/ul salmon testes DNA, 50 uM zinc acetate, 200 nM TF, 25 C, 1 h; high values mean tight binding
- Recorded Conditions: protein: recombinant; tags: N-terminal polyhistidine and DsRed monomer fusion (pET32a); label: CyDye5-dUTP incorporated in the synthesized complementary strand; 3' TTTTT single-stranded linker to array surface; dsDNA, one strand shown
Whole data set: some 68,000 sequences, median “fluorescence intensity (a.u.)” near 9,100, cut for the highest 2% near 16,000. Many of the other results were omitted from the sample, so the highest values are more common in it than they were.
Readout Kind: binding signal

* TTTTTTTCTCCTTTCCTTCTTCTCTCTCTCTCTTTTTTTTCGGAGTCACCTAGTGCAG | 8870 fluorescence intensity (a.u.)
* GGTGTCTTGATTGATATGATTTAAATTATTCTTGGTCTTGCGGAGTCACCTAGTGCAG | 9570 fluorescence intensity (a.u.)
* ACTCCTACAGTAGTGACTTGAGTAGCGCTTCTTTTTTCCACGGAGTCACCTAGTGCAG | 9440 fluorescence intensity (a.u.)
* AATACTTGCGAGCTCCGATCTCTTCTTCTTCTTCGTGAGCCGGAGTCACCTAGTGCAG | 8180 fluorescence intensity (a.u.)
* TTGATTTTTTGTTGCAAAAGAATATTTTAATTCACTGCAACGGAGTCACCTAGTGCAG | 24300 fluorescence intensity (a.u.)
* AAACATGTTTAAAAAAGTCAACGGCGTCAAACATTTAGGGCGGAGTCACCTAGTGCAG | 13800 fluorescence intensity (a.u.)

Request: What is its binding signal for OsWRKY34 (Oryza sativa, UniProt Q0JBA9 1-250)? Entry: GCCATTGACAGCGTTGACCAAGTCAGCCGCTCCAGCCTCTCGGAGTCACCTAGTGCAG
Result: 14200 fluorescence intensity (a.u.)

Request: Entry TACTCGTTTGGTTGTAATTTTTTTCCGCGTCTTTTCATCTCGGAGTCACCTAGTGCAG please
Result: 11200 fluorescence intensity (a.u.)

Request: Entry AGACCGTTGACTTGACTAGTCCACTCCTCTTTCACACGTACGGAGTCACCTAGTGCAG please
Result: 12100 fluorescence intensity (a.u.)

Request: Entry AAACTACCATGGGACTTATATTGCTCCGGTTTTGATAGTTCGGAGTCACCTAGTGCAG please
Result: 8480 fluorescence intensity (a.u.)

Request: Entry AATAGCCTCGTCCCTGTAAACTCCCAATCCCTTTTTAAAACGGAGTCACCTAGTGCAG please
Result: 8420 fluorescence intensity (a.u.)

Request: Entry GCCAAGGCCTTACTGCTGCTTCTGTTTCTTGCCACCAATGCGGAGTCACCTAGTGCAG please
Result: 9650 fluorescence intensity (a.u.)

Request: Entry CTCCTGGCAACCCCATGCACTGCTTTTGCTGCCCTTAAGTCGGAGTCACCTAGTGCAG please
Result: 8620 fluorescence intensity (a.u.)

Request: Entry CGTTTCTCTTTCTTTCTTCCCTTCGGTTTCTCCTCCTCTCCGGAGTCACCTAGTGCAG please
Result: 10600 fluorescence intensity (a.u.)

Request: Entry TCCCACCCGTTTTTATTTTTCTCGGTGGTTAACTTATCTTCGGAGTCACCTAGTGCAG please
Result: 8170 fluorescence intensity (a.u.)

Request: Entry TCAAACGATGCCATTCACCACGTGCCACTTTATATCAAACCGGAGTCACCTAGTGCAG please
Result: 11700 fluorescence intensity (a.u.)

Request: Entry TATTTTTAAAAAAGTCAACGGCGTCTTGTGGGATGGAGGGCGGAGTCACCTAGTGCAG please
Result: 21300 fluorescence intensity (a.u.)

Request: Entry AGAGAGAGGTTGCTGTTTCGATGCGTATTTCTGCAGCTTTCGGAGTCACCTAGTGCAG please
Result: 10100 fluorescence intensity (a.u.)

Request: Entry CACTCTCTCTCGCTGTCTTTCTCTCCTTCCATTTCATTTCCGGAGTCACCTAGTGCAG please
Result: 8250 fluorescence intensity (a.u.)

Request: Entry ATATGTTTAAAAAAGTCAACGGCGTCAAACATTTAGGGATCGGAGTCACCTAGTGCAG please
Result: 18600 fluorescence intensity (a.u.)

Request: Entry TTTTCGTCTATTTTATTACTGTTGCTTGCCTACAATTCTCCGGAGTCACCTAGTGCAG please
Result: 13500 fluorescence intensity (a.u.)

Request: Entry CACACACTCTCCGGTTTTTTTTTCCTTTTCATTTTTTTCTCGGAGTCACCTAGTGCAG please
Result: 28000 fluorescence intensity (a.u.)

Request: Entry GTGGGAGGGAGGGCGGCGAGCTGCGCGGCGAACCTCGAGCCGGAGTCACCTAGTGCAG please
Result: 8120 fluorescence intensity (a.u.)

Source listed as paper PMC7819943.
